Give pKi for every item shown.
biological target: HPK1 (Homo sapiens, UniProt Q92918); test: HPK1 Kinase Binding Assay; conditions: LanthaScreen tracer 222 binding, active HPK1, one hour incubation at 25° C.
pKi: −log10 of the molar value.

| MOLECULE | ASSAY_TARGET | pKi |
| --- | --- | --- |
| CC(=O)N1CCC(n2cc(-c3n[nH]c4ccc(-c5ccccc5F)nc34)cn2)CC1 | HPK1 (Homo sapiens, UniProt Q92918) | 5.00 to 6.30 |
| Fc1ccccc1-c1ccc2[nH]nc(-c3ccccc3)c2n1 | HPK1 (Homo sapiens, UniProt Q92918) | 5.00 to 6.30 |
| CN1CCN(c2ccc(-c3n[nH]c4ccc(-c5cccc6c5OCC6)nc34)cc2)CC1 | HPK1 (Homo sapiens, UniProt Q92918) | 6.30 to 7.00 |

For each listed entry, give its pKi.
1. CN1CCN(C(=O)c2ccc(-c3n[nH]c4ccc(-c5ccccc5F)nc34)cc2)CC1
2. Fc1ccccc1-c1ccc2[nH]nc(-c3ccncc3)c2n1
3. Cn1cc(-c2n[nH]c3ccc(-c4ccccc4F)nc23)cn1
4. CN1CCN(c2ccc(-c3n[nH]c4ccc(-c5ccncc5)nc34)cc2)CC1
5. CCc1cn2cccc(-c3ccc4[nH]nc(-c5ccc(N6CCN(C)CC6)cc5)c4n3)c2n1
6. CN1CCN(c2ccc(-c3n[nH]c4ccc(-c5cccc6c5ccn6C)nc34)cc2)CC1
7. O=C(Nc1ccccc1)c1ccc(-c2n[nH]c3ccc(-c4ccccc4F)nc23)cc1
8. CN1CCN(c2ccc(-c3n[nH]c4ccc(-c5cccc6c5CCC6NCCO)nc34)cc2)CC1 (centres unmarked)

output:
5.00 to 6.30
5.00 to 6.30
6.30 to 7.00
6.30 to 7.00
6.30 to 7.00
6.30 to 7.00
5.00 to 6.30
≥ 7.00

For each listed entry, give its pKi.
1. CN1CCN(c2ccc(-c3n[nH]c4ccc(-c5cccc(N(C)C)c5)nc34)cc2)CC1
2. CN1CCN(c2ccc(-c3n[nH]c4ccc(-c5ccccc5)nc34)cc2)CC1
3. CN1CCN(c2ccc(-c3n[nH]c4ccc(-c5cccc6c5CC(=O)N6)nc34)cc2)CC1
4. CNC(=O)c1cccc(-c2ccc3[nH]nc(-c4ccc(N5CCN(C)CC5)cc4)c3n2)c1
5. COc1ccccc1-c1ccc2[nH]nc(-c3ccc(N4CCN(C)CC4)cc3)c2n1
6. CN1CCN(c2ccc(-c3n[nH]c4ccc(-c5cccc6c5OCCO6)nc34)cc2)CC1

output:
1. 5.00 to 6.30
2. 6.30 to 7.00
3. 6.30 to 7.00
4. 6.30 to 7.00
5. 6.30 to 7.00
6. 6.30 to 7.00
